All figures here come from patent US20060166989A1.

target: IP receptor (Homo sapiens); construct: HEL cells were collected with centrifugation and washed with cAMP assay buffer; host or cells: HEL 92.1.7 human erythroleukemia cells; assay: Iloprost-induced cAMP production assay in HEL cells (Assay 2); format: cell-based; settings: read-out: Activity grade assay 2
Sequence (P43119 whole entry): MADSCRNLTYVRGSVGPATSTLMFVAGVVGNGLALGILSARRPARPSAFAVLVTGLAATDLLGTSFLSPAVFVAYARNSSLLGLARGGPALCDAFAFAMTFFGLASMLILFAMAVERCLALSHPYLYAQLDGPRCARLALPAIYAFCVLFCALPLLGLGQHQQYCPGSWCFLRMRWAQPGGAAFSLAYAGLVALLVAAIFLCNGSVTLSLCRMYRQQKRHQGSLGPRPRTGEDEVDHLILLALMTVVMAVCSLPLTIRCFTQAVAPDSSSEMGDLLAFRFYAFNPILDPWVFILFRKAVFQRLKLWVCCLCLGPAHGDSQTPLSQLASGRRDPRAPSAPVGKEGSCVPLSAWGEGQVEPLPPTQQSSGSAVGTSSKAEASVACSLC
MEASURED_QUANTITY: IC50

Below are worked cases with known answers.
# COMPOUND, TARGET_ENTITY, IC50
rows = [
    ("O=C(NC(Cc1ccc2ccccc2c1)C(=O)O)c1ccc2cc(OCc3ccccc3)ccc2c1 (stereo not drawn) [Example 1-67]", "IP receptor (Homo sapiens)", "< 100 nM"),
    ("O=C(NC(Cc1ccccc1)C(=O)O)c1ccc2cc(OCc3ccccc3F)ccc2c1 (stereo not drawn) [Example 1-7]", "IP receptor (Homo sapiens)", "< 100 nM"),
    ("O=C(NC(Cc1ccccc1)C(=O)O)c1ccc2cc(OCc3ccc(Cl)cc3)ccc2c1 (stereo not drawn) [Example 1-25]", "IP receptor (Homo sapiens)", "100 to 1000 nM"),
    ("O=C(NC(Cc1ccccc1)C(=O)O)c1ccc2cc(OCCc3ccccn3)ccc2c1 (stereo not drawn) [Example 1-78]", "IP receptor (Homo sapiens)", "100 to 1000 nM"),
    ("O=C(N[C@@H](Cc1ccccc1)C(=O)O)c1ccc2cc(OCc3ccccc3)ccc2c1 (single isomer, unassigned) [Example 1-1, N-(6-Benzyloxy-2-naphthoyl)phenylalanine]", "IP receptor (Homo sapiens)", "< 100 nM"),
]

Prompt: Tell me its IC50 given O=C(NC(Cc1ccccc1)C(=O)O)c1ccc2cc(OCc3cccc(Cl)c3)ccc2c1 (stereo not drawn) [Example 1-24] as the entry.
Completion: < 100 nM
